system: Scedosporium aurantiacum CBS 136046; experiment: growth inhibition relative to DMSO control (OD600); higher = more antifungal activity, active = 80 or more; extreme values may be limits of the assay; details: 5 µM; 72 h; 37 °C;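 note: conidia screened in RPMI 1640 medium under 5% CO2, growth read by spectrophotometer, medium with 0.5% DMSO serving as the untreated reference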
// allowed return values: active, inactive

Prompt line: Write down the call the test reported for this molecule. Item: `Cc1cc(-c2ccccc2)c(C(=O)C(=O)Nc2ccc(N3CCN(c4ncc(F)cn4)CC3)cc2)n1C`
Response line: active

Prompt line: Per the records of this test, what outcome belongs to `CCCCOC(=O)Nc1cc2nc(C3CCCCC3)[nH]c2cc1N(CC)CC` ?
Response line: inactive

Prompt line: Check the results log: what was the call for `NC(=O)[C@@H]1CC[C@@H]2CN1C(=O)N2OS(=O)(=O)O` ?
Response line: inactive

Prompt line: Answer briefly: the call reported for `CC(C)Nc1ncnc2c1cnn2-c1ccc(Cl)cc1` in this assay.
Response line: inactive

Prompt line: What call does the record list for Cc1nc(Nc2ccc(F)cc2)nc(N2CCc3ccccc3C2C)c1C (stereo not given) ?
Response line: inactive

Prompt line: Fill in: this test's call for O=C(c1ccc(F)cc1)N1CCN2C(=O)c3ccccc3C12c1ccccc1 (stereo not given) is ___
Response line: inactive

Prompt line: Hi, sorry to bother you, what did the test record for `CCC(CC)[C@H](NC(C)=O)[C@@H]1[C@H](O)[C@@H](C(=O)O)C[C@H]1NC(=N)N` ?
Response line: inactive

Prompt line: Give the logged outcome of this assay for the following molecule: `O=S(=O)(NCB(O)O)c1cc2c(Cl)ccc(Cl)c2s1`
Response line: inactive

Prompt line: Would you mind telling me which call this test gave CSc1ccc2c(c1)C(N1CCN(C)CC1)Cc1ccccc1S2 (stereo not given) ?
Response line: inactive

Prompt line: For this molecule, state the assay outcome: `CC(=O)Nc1cc(NS(=O)(=O)c2ccc(Cl)cc2)cc2c(Cl)[nH]nc12`
Response line: inactive

Prompt line: Per the records of this test, what outcome belongs to `O=C(NC(=O)N1CCCc2ccccc21)c1ccc(Cl)cc1Cl` ?
Response line: inactive

Prompt line: Query: recorded result category for `O=C(CCCC(F)(F)F)N1CCC(c2nc(-c3nccs3)no2)CC1` in this test
Response line: inactive

Prompt line: # fetch the recorded call for `Nc1cccc(-c2nc(N)nc(NC3Cc4ccccc4C3)n2)c1` here
Response line: inactive

Prompt line: GET /call?item= `Clc1ccc(Cn2c(CN3CCCC3)nc3ccccc32)cc1` returns the recorded outcome of this test.
Response line: inactive

Prompt line: Any idea what this test logged for `O=C(O)c1ccccc1Sc1ncnc2sc3c(c12)CCC3` ?
Response line: inactive

Prompt line: Query: recorded result category for `O=C(Nc1nnc(-c2ccc(Cl)cc2)o1)c1nc2ccccc2s1` in this test
Response line: inactive

Prompt line: In this assay, the call recorded for `OCCCCn1cnc2c(O)nc(NCc3ccc(Cl)c(Cl)c3)nc21` was what?
Response line: inactive

Prompt line: # fetch the recorded call for `CCNC(=O)Nc1cn2c(-c3ncc(CC)cn3)cc(-c3cccnc3)cc2n1` here
Response line: inactive

Prompt line: Kindly provide the recorded test outcome for the following molecule: `O[C@@](Cn1cnnn1)(c1ccc(F)cc1F)C(F)(F)c1ccc(-c2ccc(OCC(F)(F)F)cc2)cn1`
Response line: inactive

Prompt line: Per the records of this test, what outcome belongs to `CC(=O)NC[C@H]1CN(c2ccc(N3CCSCC3)c(F)c2)C(=O)O1` ?
Response line: inactive

Prompt line: Short answer needed: outcome of this test for `Cc1c(CN(C)C(=O)/C=C/c2cnc3c(c2)C(C)(C)C(=O)N3)oc2ccccc12` ?
Response line: inactive

Prompt line: Please share the test call associated with `OC(Cn1cncn1)(Cn1cncn1)c1ccc(F)cc1F` .
Response line: inactive

Prompt line: Outcome logged for O=C(O)C(Cc1c[nH]c2ccccc12)N1C(=O)c2ccccc2C1=O (stereo not given) in this assay:
Response line: inactive

Prompt line: What outcome does the record of this test show for CC[N+]1(C/C2=C/CCCCCC2)CCC(NC(=O)C2c3cc(Cl)ccc3Oc3ccc(Cl)cc32)CC1 (stereo not given) ?
Response line: inactive

Prompt line: Look up the recorded call for `Cn1cc(NC(=O)c2cc(NC(=O)c3ccc(/C=C/c4cnc5ccccc5c4)cc3)cn2C)cc1C(=O)NCCN1CCOCC1` in this test.
Response line: inactive

Prompt line: # outcome recorded in this test, key = `CC(C)c1cc2c(cc1S(=O)(=O)O)[C@@]1(C)CCC[C@@](C)(C(=O)O)[C@@H]1CC2`
Response line: inactive

Prompt line: Please let me know the test result on file for `O=C(Nc1nnc(-c2ccccc2)o1)c1ccc(F)cc1` .
Response line: inactive

Prompt line: Could you kindly confirm the outcome this assay logged for `O=c1[nH]c(=O)n(Cc2cccc(Oc3ccccc3)c2)cc1Nc1ccccc1` ?
Response line: inactive

Prompt line: Test call for this molecule, please: COC(=O)Nc1nc2cc([S+]([O-])c3ccccc3)ccc2[nH]1 (stereo not given)
Response line: inactive

Prompt line: Given CCn1cc(C(=O)O)c(=O)c2cc(F)c(N3CCNC(C)C3)c(F)c21 (stereo not given) , state the outcome it received in this test.
Response line: inactive

Prompt line: Hello, I am checking results. What call was entered for `C[C@H]1[C@@H](c2cccc(C(F)(F)F)c2)OC(=O)N1C(=O)NCc1cncc2ccccc12` ?
Response line: inactive

Prompt line: Could you kindly confirm the outcome this assay logged for `COc1ccc(NS(=O)(=O)c2ccc(Cl)s2)cn1` ?
Response line: inactive

Prompt line: Call for entry `CC(=O)Oc1ccccc1C(=O)Nc1ncc([N+](=O)[O-])s1` :
Response line: inactive

Prompt line: Per the assay record, what outcome was assigned to `CN(C(=O)C1(c2ccc(Cl)cc2)CCC1)c1ccccc1` ?
Response line: inactive

Prompt line: Recorded call for `O=C1NC(=O)C(Br)=C1Br` ?
Response line: inactive
